- protocol_description: recombinant UMI read abundance after kanamycin selection (control-corrected) (log10(CPM+1)); higher = more efficient recombination; extreme values may be limits of the assay; sequences stand for … in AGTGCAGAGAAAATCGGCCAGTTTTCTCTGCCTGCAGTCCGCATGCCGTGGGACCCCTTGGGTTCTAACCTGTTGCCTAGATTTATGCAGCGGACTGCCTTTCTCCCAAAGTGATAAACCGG…AGGTTGGTTTCACT; site = the 11-nt donor;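 also: IS621 bridge recombinase in Escherichia coli cells against a fixed T5 target plasmid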
# recombinant UMI read abundance (log10) per entry

sequence_entry | recombinant UMI read abundance (log10)
CGGGAACCATGGACCGGTTTTCCCGGTAATCCGTATTTGTT (site CGGAATCCTAA) | 0
GTAGGTTCATGGACCGGTTTTCCCGGTAATCCGTATTTGAC (site GTAGGTACTGT) | 1.88
GTCTACACATGGACCGGTTTTCCCGGTAATCCGTATTTGCT (site ATCTACACTAG) | 1.33
TCCAATTCATGGACCGGTTTTCCCGGTAATCCGTATTTGCC (site TCAAATTCTGG) | 0
ACCTAGTCATGGACCGGTTTTCCCGGTAATCCGTATTTGGG (site ACCTAGCCTCC) | 0.017
GGCATTGCATGGACCGGTTTTCCCGGTAATCCGTATTTGGT (site GGCATTGCTAC) | 1.48
TCTGCAGCATGGACCGGTTTTCCCGGTAATCCGTATTTGTA (site TCTGCAGCTTA) | 0
AGGTACGCATGGACCGGTTTTCCCGGTAATCCGTATTTGAG (site AGGTACGCTCT) | 1.72
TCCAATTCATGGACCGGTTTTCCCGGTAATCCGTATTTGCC (site TCCAATGCTGG) | 0

----------
- protocol_description: recombinant UMI read abundance after kanamycin selection (control-corrected) (log10(CPM+1)); higher = more efficient recombination; extreme values may be limits of the assay; sequences stand for … in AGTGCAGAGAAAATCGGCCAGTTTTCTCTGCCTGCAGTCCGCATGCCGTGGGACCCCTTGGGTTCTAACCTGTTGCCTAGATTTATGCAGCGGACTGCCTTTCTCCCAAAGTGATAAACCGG…AGGTTGGTTTCACT; site = the 11-nt donor
# recombinant UMI read abundance (log10) per entry

sequence_entry | recombinant UMI read abundance (log10)
TGTCCAACATGGACCGGTTTTCCCGGTAATCCGTATTTGTA (site GGTCCAACTTA) | 0.0289
AACTGTCCATGGACCGGTTTTCCCGGTAATCCGTATTTGTG (site AACTGTCCTCA) | 0.0176
GGATAGACATGGACCGGTTTTCCCGGTAATCCGTATTTGTC (site GGATAGACTGA) | 3.09
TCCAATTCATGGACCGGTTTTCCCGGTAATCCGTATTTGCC (site TCCAAATCTGG) | 0
CATAATCCATGGACCGGTTTTCCCGGTAATCCGTATTTGTT (site CGGAATCCTAA) | 0.00373

----------
- protocol_description: recombinant UMI read abundance after kanamycin selection (control-corrected) (log10(CPM+1)); higher = more efficient recombination; extreme values may be limits of the assay; sequences stand for … in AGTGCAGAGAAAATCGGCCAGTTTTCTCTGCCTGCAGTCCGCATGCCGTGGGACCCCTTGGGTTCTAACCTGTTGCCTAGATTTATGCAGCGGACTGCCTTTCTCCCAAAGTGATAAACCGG…AGGTTGGTTTCACT; site = the 11-nt donor
experimental_endpoint: recombinant UMI read abundance (log10)

sequence_entry | test_value
ACTAGGACATGGACCGGTTTTCCCGGTAATCCGTATTTGAG (site ACTAGAACTCT) | 2.04
GCTCTGCCATGGACCGGTTTTCCCGGTAATCCGTATTTGCG (site GCTCTGCCTCG) | 0.0154
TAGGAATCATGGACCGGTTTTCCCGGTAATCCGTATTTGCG (site GAGGAATCTCG) | 0
ACTTTGGCATGGACCGGTTTTCCCGGTAATCCGTATTTGTA (site ACTTTGGCTTA) | 1.26
TAAAGTCCATGGACCGGTTTTCCCGGTAATCCGTATTTGTC (site TAAAGTCCTTA) | 0.00692
TCATATACATGGACCGGTTTTCCCGGTAATCCGTATTTGGA (site TCATATACTTC) | 0.727
TGGCCGACATGGACCGGTTTTCCCGGTAATCCGTATTTGGG (site TGGCCGACTCC) | 0
AGCTAGCCATGGACCGGTTTTCCCGGTAATCCGTATTTGGA (site AGCTAGCCTTC) | 0.00495
CGGACAACATGGACCGGTTTTCCCGGTAATCCGTATTTGCT (site CGGACAACTAG) | 1.89
